molecular target: β 1c (caspase-like) (Homo sapiens, UniProt P28072+Q99436); construct: protease activity associated with the proteasome complex in cultured cells; endogenous in cells; host or cells: Ramos cells; test: Cell-Based Proteasome Activity/Selectivity Assay (Ramos cells), substrate (LLE)2Rh110; settings: β 1c substrate (LLE)2Rh110, highest concentration tested 20 μM
measured.attribute: IC50 (µM)

# count of solved cases: 2
// IC50 value for O=C(N[C@@H](Cc1ccccc1)B(O)O)c1cn(CCNC(=O)c2ccc(C(F)(F)F)cc2F)nn1 [Example 3] : 7.34

// IC50 value for COc1cc(C(F)(F)F)ccc1C(=O)NCCn1cc(C(=O)N[C@@H](Cc2ccccc2)B(O)O)nn1 [Example 4] : 7.48

(I) COc1ccc(C(=O)NCCn2cc(C(=O)N[C@@H](CC(C)C)B(O)O)nn2)c(OC)c1OC [Example 1]
(II) COc1ccc(C(=O)NCCn2cc(C(=O)N[C@@H](Cc3ccccc3)B(O)O)nn2)c(OC)c1OC [Example 2]
Query string: Out of I and II , name the one with the higher IC50. Return value: the label identifying the chosen record.
Result string: II
